The values you see were collected from the kinase profiling compilation of Christmann-Franck et al. (2016).

# TARGET_SYSTEM: UniProt O14976
# Sequence (O14976 whole entry, looked up): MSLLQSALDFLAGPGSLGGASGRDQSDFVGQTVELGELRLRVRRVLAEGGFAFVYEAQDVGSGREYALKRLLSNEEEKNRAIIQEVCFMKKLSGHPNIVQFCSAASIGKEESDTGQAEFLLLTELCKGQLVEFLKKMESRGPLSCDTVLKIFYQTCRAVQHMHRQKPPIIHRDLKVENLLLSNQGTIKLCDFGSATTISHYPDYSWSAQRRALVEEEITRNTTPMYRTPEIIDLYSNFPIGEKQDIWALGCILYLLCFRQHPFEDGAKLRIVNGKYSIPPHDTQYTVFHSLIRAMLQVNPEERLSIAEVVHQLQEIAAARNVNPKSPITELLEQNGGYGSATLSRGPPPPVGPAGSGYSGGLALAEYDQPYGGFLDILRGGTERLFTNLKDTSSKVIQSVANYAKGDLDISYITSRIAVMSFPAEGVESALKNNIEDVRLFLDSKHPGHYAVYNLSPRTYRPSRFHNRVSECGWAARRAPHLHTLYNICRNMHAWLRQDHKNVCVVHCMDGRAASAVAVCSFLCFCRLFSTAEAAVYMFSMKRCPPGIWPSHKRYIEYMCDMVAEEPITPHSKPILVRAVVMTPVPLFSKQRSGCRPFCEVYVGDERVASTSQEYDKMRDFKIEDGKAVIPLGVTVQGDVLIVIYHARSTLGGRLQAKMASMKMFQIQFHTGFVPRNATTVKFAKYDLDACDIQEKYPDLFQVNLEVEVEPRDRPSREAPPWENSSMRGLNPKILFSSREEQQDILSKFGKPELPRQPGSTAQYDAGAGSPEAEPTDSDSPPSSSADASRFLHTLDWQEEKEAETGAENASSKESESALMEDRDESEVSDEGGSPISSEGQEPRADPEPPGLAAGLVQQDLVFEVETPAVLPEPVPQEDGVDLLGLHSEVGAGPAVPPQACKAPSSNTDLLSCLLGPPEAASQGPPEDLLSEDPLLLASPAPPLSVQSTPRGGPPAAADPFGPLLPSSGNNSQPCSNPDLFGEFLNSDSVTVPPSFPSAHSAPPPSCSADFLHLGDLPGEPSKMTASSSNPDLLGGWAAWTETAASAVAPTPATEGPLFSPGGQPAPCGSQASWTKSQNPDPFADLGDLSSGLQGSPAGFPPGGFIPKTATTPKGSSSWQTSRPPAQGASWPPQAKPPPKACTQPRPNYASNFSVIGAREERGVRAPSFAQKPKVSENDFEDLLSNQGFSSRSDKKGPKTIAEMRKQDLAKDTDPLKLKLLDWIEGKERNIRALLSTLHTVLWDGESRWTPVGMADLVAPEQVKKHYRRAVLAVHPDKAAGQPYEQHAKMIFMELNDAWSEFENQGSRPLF
# ASSAY_NAME: KINOMEscan competition binding
# CONDITION_DETAILS: compound 10.0 µM
Please assign Not satisfied whenever kinase still bound, per cent of control is at or above 4%, and Satisfied whenever it is below.

- SUBSTANCE_SMILES: "COc1cc2ncnc(-n3nc(-c4ccccn4)nc3N)c2cc1OC"
  TARGET_SYSTEM: "UniProt O14976"
  LABEL: "Satisfied"
- SUBSTANCE_SMILES: "CCN(CC)CCCCNc1ncc2cc(-c3cc(OC)cc(OC)c3)c(NC(=O)NC(C)(C)C)nc2n1"
  TARGET_SYSTEM: "UniProt O14976"
  LABEL: "Not satisfied"
- SUBSTANCE_SMILES: "O=C(Nc1cccc(Nc2ncc(Br)c(NCCc3cnc[nH]3)n2)c1)N1CCCC1"
  TARGET_SYSTEM: "UniProt O14976"
  LABEL: "Satisfied"
- SUBSTANCE_SMILES: "NC(=O)Nc1cc(-c2cccc(F)c2)sc1C(=O)N[C@@H]1CCCNC1"
  TARGET_SYSTEM: "UniProt O14976"
  LABEL: "Satisfied"
- SUBSTANCE_SMILES: "CNC(=O)c1ccc(Nc2cc(Nc3ccccc3S(=O)(=O)C(C)C)c3cc[nH]c3n2)nc1"
  TARGET_SYSTEM: "UniProt O14976"
  LABEL: "Satisfied"
- SUBSTANCE_SMILES: "CNC(=O)c1cc(Oc2ccc(NC(=O)Nc3ccc(Cl)c(C(F)(F)F)c3)cc2)ccn1"
  TARGET_SYSTEM: "UniProt O14976"
  LABEL: "Not satisfied"
- SUBSTANCE_SMILES: "CN(C)C/C=C/C(=O)Nc1ccc(C(=O)Nc2cccc(Nc3nccc(-c4cccnc4)n3)c2)cc1"
  TARGET_SYSTEM: "UniProt O14976"
  LABEL: "Satisfied"
- SUBSTANCE_SMILES: "CS(=O)(=O)N1CCN(Cc2cc3nc(-c4cccc5[nH]ncc45)nc(N4CCOCC4)c3s2)CC1"
  TARGET_SYSTEM: "UniProt O14976"
  LABEL: "Not satisfied"
- SUBSTANCE_SMILES: "COc1cc(N2CCN(C)CC2)ccc1Nc1ncc2c(n1)N(C)c1ccccc1C(=O)N2C"
  TARGET_SYSTEM: "UniProt O14976"
  LABEL: "Not satisfied"
- SUBSTANCE_SMILES: "C=CC(=O)Nc1cc(-n2c(=O)ccc3cnc4ccc(-c5cn[nH]c5)cc4c32)ccc1C"
  TARGET_SYSTEM: "UniProt O14976"
  LABEL: "Not satisfied"
